Tested on: RARE
Test: siRNA transfection array, RARE EGFP reporter, HepG2 cells
Type: cell-based, human
Conditions: EGFP intensity relative to Scramble II Duplex negative control (100%)
Protocol: Functional reporters for transcriptional factors and fibronectin described in Table 2 were used to synthesize siRNAs for the transcriptional factors including SRE, TRE, E2F, p53, Rb, Actin, NFAT, NFkB, STAT3, RARE, PMA, ISRA, HSE, Myc, AP1, GAS, ERE, GRE and CRE. siRNA for EGFP was used as a control. Each siRNA was evaluated as to whether or not it knocks out a target transcription factor. Scrambled RNAs were used as negative controls, and their ratios were evaluated. […]
Kindly supply the reported RARE, relative intensity ratio values for the records listed here.
Kindly answer with a numeric value in %, unit omitted.

[ask] Indicate the recorded RARE, relative intensity ratio value for this substance: c-Jun siRNA: siRNA SEQ ID NO: 54 (Dharmacon), targets human c-jun J04111 (GGUGGCACAGCUUAAACAG; chemistry not given here)
[reply] 59.1

[ask] Provide one value: measured RARE, relative intensity ratio of HSF-1 siRNA: siRNA SEQ ID NO: 59 (Dharmacon), targets human HSF1 NM_005526 (GGAGUGCAUGGACUCCAAG; chemistry not given here)
[reply] 59.5

[ask] Note RARE, relative intensity ratio for the substance shown: RARA siRNA: siRNA SEQ ID NO: 65 (Dharmacon), targets human retinoic acid receptor alpha NM_000964 (GUACUGCCGACUGCAGAAG; chemistry not given here)
[reply] 60.9

[ask] Identify the reported RARE, relative intensity ratio for the following entry. STAT2 siRNA: siRNA SEQ ID NO: 73 (Dharmacon), targets human interferon alpha induced transcriptional activator M97934 (GGUGCUCAUCUACUCUGUG; chemistry not given here)
[reply] 59.6
